Biological target: T1, mouse NMUR1-ATG (mouse, UniProt O55040 1-428)
T1 sequence (looked up): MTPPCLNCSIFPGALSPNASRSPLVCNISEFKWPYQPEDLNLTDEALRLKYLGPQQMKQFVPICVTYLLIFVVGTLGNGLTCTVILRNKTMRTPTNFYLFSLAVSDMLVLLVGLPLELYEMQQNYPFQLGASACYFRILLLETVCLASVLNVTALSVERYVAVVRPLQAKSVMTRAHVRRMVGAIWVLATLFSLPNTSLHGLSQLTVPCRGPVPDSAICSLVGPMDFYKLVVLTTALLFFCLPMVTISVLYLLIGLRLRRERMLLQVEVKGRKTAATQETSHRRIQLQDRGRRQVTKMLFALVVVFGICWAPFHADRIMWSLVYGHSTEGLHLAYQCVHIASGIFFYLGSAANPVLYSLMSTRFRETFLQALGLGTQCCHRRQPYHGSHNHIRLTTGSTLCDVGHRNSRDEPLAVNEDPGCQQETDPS
Assay: cell-based or functional assay
Groups on a side chain read outwards from the residue. cholesteroyl = cholesterol group linked to a cysteine residue via the side-chain thiol
observable: % Activity (maximum response at 1 µM compared to the human NMU-25 response) (%)

Here are 2 binders together with their reported answers.
binder | measure_unit | recorded_result
H-ILQRGSGTAAVDFTKKDHTATWGRPFFLFRPRN-NH2 [native human Neuromedin S peptide (NMS)] | % | 102
Ac-C([maleimide-PEG 40 kDa])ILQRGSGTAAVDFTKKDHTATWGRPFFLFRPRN-NH2 [NMS4 (Ac-C4ILQRGSGTAAVDFTKKDHTATWGRPFFLFRPRN-CONH2)] | % | 95

(a) Ac-C([maleimide-(PEG)2 40 kDa])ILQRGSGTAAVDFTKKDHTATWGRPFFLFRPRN-NH2 [NMS1 (Ac-C2ILQRGSGTAAVDFTKKDHTATWGRPFFLFRPRN-CONH2)]
(b) Ac-C(cholesteroyl)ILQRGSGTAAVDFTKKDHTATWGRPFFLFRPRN-NH2 [NMS2 (Ac-C3ILQRGSGTAAVDFTKKDHTATWGRPFFLFRPRN-CONH2)]
INPUT: Please state the entry with greater % Activity (maximum response at 1 µM compared to the human NMU-25 response) among a and b . // return label of chosen record
OUTPUT: a
